tested on: A375 cells; test: Assay 1: A375 cells treated with S1152, S1008 and compound, immunofluorescence (sc-365823) signal; format: cell-based; conditions: 1 μM S1152 + 0.5 μM S1008, one day
Experimental readout: EC50

CC(=O)Nc1cc(Nc2cc(-c3cccnc3)nc([C@@H]3CC[C@H](C)N(C(C)=O)C3)n2)cc(C(F)F)c1 :: 200 to 1000 nM
COc1cc(Nc2cc(-c3cccnc3)nc([C@@H]3CC[C@H](C)N(C(C)=O)C3)n2)ccn1 :: < 200 nM
CC(=O)N1C[C@H](c2nc(Nc3cc(F)ccn3)cc(-c3cnccn3)n2)CC[C@@H]1C :: 200 to 1000 nM
COCCn1cc(-c2cc(Nc3cc(-c4cccnc4)nc([C@@H]4CC[C@H](C)N(C(C)=O)C4)n3)ccn2)cn1 :: 200 to 1000 nM

* * *

system: A375 cells; test: Assay 1: A375 cells treated with S1152, S1008 and compound, immunofluorescence (sc-365823) signal; assay type: cell-based; conditions: 1 μM S1152 + 0.5 μM S1008, one day
pEC50: −log10 of the molar value.
Measured pEC50 of individual entries
Experimental readout: pEC50

CC(=O)N1C[C@H](c2nc(Nc3cccc(-c4noc(C)n4)c3)cc(-c3cnccn3)n2)CC[C@@H]1C :: > 6.70
COc1cc(-c2cc(Nc3ccnc(C)c3)nc([C@@H]3CC[C@H](C)N(C(C)=O)C3)n2)cnc1OC :: < 5.00
CC(=O)N1C[C@H](c2nc(Nc3ccnc(C)c3)cc(-c3cncc(C)n3)n2)CC[C@@H]1C :: > 6.70
COc1cc(Nc2cc(-c3cccnc3)nc([C@@H]3CC[C@H](C)N(C(C)=O)C3)n2)cc(C)n1 :: > 6.70
CC(=O)N1C[C@H](c2nc(Nc3cncc(C)c3)cc(-c3cncc(C)c3)n2)CC[C@@H]1C (racemic) :: > 6.70
CC(=O)N1C[C@H](c2nc(Nc3cncc(C)c3)cc(-c3cncc(C4COC4)c3)n2)CC[C@@H]1C (racemic) :: 6.00 to 6.70
CC(=O)N1C[C@H](c2nc(Nc3ccc4cn[nH]c4c3)cc(-c3cccnc3)n2)CC[C@@H]1C :: 6.00 to 6.70

* * *

target: BRD3(1, 2) (Homo sapiens); construct: T7 phage strains displaying bromodomains were grown in parallel; purchased DiscoverX; host or cells: T7 phage in an E. coli host derived from the BL21 strain; assay: BromoKdMAX (BROMOscan, DiscoverX); assay type: binding
Sequence (Q15059 24-416 limits assumed): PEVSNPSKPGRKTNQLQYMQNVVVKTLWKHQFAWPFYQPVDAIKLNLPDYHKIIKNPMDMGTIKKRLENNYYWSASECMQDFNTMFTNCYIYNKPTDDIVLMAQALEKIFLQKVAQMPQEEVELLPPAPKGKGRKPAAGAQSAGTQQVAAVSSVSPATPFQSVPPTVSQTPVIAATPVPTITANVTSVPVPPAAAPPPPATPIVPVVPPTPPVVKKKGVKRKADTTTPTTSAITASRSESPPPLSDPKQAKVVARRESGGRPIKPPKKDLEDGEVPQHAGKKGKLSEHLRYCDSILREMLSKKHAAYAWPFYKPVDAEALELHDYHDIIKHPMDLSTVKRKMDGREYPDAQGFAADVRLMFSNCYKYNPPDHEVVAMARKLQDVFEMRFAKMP
Experimental readout: Kd

COc1cncc(-c2cc(Nc3cccc(F)c3)nc([C@@H]3CC[C@H](C)N(C(C)=O)C3)n2)c1 :: > 10 µM

* * *

target: BRDT(1, 2) (Homo sapiens); construct: T7 phage strains displaying bromodomains were grown in parallel; assay: BromoKdMAX (BROMOscan, DiscoverX)
Experimental readout: Kd

COc1cncc(-c2cc(Nc3cccc(F)c3)nc([C@@H]3CC[C@H](C)N(C(C)=O)C3)n2)c1 :: > 10 µM

* * *

biological target: PBRM1(2) (Homo sapiens, UniProt Q86U86); construct: T7 phage strains displaying bromodomains were grown in parallel; assay: BromoKdMAX (BROMOscan, DiscoverX)
Sequence (Q86U86 177-287 limits assumed): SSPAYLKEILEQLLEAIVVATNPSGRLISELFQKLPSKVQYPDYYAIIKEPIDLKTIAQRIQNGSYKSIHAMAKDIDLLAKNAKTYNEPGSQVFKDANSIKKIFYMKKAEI
Experimental readout: Kd

COc1cncc(-c2cc(Nc3cccc(F)c3)nc([C@@H]3CC[C@H](C)N(C(C)=O)C3)n2)c1 :: > 10 µM
